The measured values listed here are drawn from patent US20150337042A1.

assayed.target: T1, EGFRvIII extracellular domain (EGFR (1-29)-G-(298-645)-LESRGPF-Myc-NMHTG-6His) (human, UniProt P00533 298-641)
T1 construct: also called recombinant EGFRvIII; not shown: Myc tag
assay.explanation: SPR (Biacore), antibody captured via anti-human Fc, antigen injected
Description: Biacore analysis was performed using a Biacore T100 with a CM5 sensory chip, and test antibodies were captured via anti-human Fc antibodies that were amino coupled to the chip using a standard amine coupling kit according to manufacturer's instructions (GE healthcare). […] The Biacore T100 is a surface plasmon resonance based biosensor for detecting, characterizing and quantifying bimolecular interactions, including the interactions between an antibody and its antigen. […]
assay.endpoint: kon (M⁻¹ s⁻¹)
Your answer is read as M⁻¹ s⁻¹, so omit the unit and give the number.

Here are 2 binders together with their reported answers.
>>> recorded_measurement("Antibody A (AbA) (antibody, human IgG1, kappa, V domains shown, IgG1) VH: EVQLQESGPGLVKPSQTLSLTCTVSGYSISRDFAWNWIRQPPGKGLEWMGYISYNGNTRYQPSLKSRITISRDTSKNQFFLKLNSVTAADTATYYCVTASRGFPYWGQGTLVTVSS VL: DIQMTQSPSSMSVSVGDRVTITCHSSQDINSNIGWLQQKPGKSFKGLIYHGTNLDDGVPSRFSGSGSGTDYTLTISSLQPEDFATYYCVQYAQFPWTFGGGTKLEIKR")
76100
>>> recorded_measurement("Antibody H (AbH) (antibody, V domains shown, Full length IgG1) VH: EVQLQESGPGLVKPSQTLSLTCTVSGYSIGKDFAWNWIRQPPGKGLEWMGYISYNGNTRYQPSLKSRITISRDTSKNQFFLKLNSVTAADTATYYCVTASRGLPYWGQGTLVTVSS VL: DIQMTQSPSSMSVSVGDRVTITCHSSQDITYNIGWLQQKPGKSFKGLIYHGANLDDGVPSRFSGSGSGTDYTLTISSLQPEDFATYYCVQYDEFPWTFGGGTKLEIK")
327000

Moving on to the next binder.
Task item: Bench note: what kon did Antibody O (AbO) (antibody, V domains shown, Full length IgG1; also called Antibody 0) VH: EVQLQESGPGLVKPSQTLSLTCTVSGYSIGKDFAWNWIRQPPGKGLEWMGYISYNGNTRYQPSLKSRITISRDTSKNQFFLKLNSVTAADTATYYCVTASRGFPYWGQGTLVTVSS VL: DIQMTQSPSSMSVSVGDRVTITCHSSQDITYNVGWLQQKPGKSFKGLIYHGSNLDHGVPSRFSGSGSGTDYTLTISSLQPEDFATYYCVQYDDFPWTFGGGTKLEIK show?
Reply: 196000
